B1: Subtilisin-chymotrypsin inhibitor-2A, P01053 (parent)
chain: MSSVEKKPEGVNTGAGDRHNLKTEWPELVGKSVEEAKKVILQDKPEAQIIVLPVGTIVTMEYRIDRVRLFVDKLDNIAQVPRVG

Variants of: B1
study-conditions: Hordeum vulgare; pH 6.3; Thermal; Fluorescence; phosphate 10 mM; reversible: yes; structure 2CI2; whole UniProt chain shown
measure-name: Tm

Reference set (6 entries):
>>> assay_result("MSSVEKKPEGVNTGAGDRHNLKTEWPELVGKSVEEAKKVILQDKPEAQIIVLPVGTIVTMEYRIDRVRLLVDKLDNIAQVPRVG")
"32.5 °C"
>>> assay_result("MSSVEKKPEGVNTGAGDRHNLKAEWPELVGKSVEEAKKVILQDKPEAQIIVLPVGTIVTMEYRIDRVRLFVDKLDNIAQVPRVG")
"43.7 °C"
>>> assay_result("MSSVEKKPEGVNTGAGDRHNLKTEWPELVGKSVNEAKKVILQDKPEAQIIVLPVGTIVTMEYRIDRVRLFVDKLDNIAQVPRVG")
"42.8 °C"
>>> assay_result("MSSVEKKPEGVNTGAGDRHNLKTEWPELVGKSVEEAAKVILQDKPEAQIIVLPVGTIVTMEYRIDRVRLFVDKLDNIAQVPRVG")
"34 °C"
>>> assay_result("MSSVEKKPEGVNTGAGDRHNLKTEWPELVGKSVEEAKKAILQDKPEAQIIVLPVGTIVTMEYRIDRVRLFVDKLDNIAQVPRVG")
"41.9 °C"
>>> assay_result("MSSVEKKPEGVNTGAGDRHNLKTEWPELVGKSVEEAKKVILQDKPEAQIIVLPAGTIVTMEYRIDRVRLFVDKLDNIAQVPRVG")
"43.8 °C"

Now for a further variant.
So, MSSVEKKPEGVNTGAGDRHNLKTEWPELVGKSVEEAKKVILQDKPEAQIIVVPVGTIVTMEYRIDRVRLFVDKLDNIAQVPRVG ? Its Tm was 46.1 °C

The measured values listed here are drawn from FireProtDB (doi:10.1021/bi00005a026).
